assay_system: human mGluR7 (Homo sapiens, UniProt Q14831)
Sequence (Q14831 35-915): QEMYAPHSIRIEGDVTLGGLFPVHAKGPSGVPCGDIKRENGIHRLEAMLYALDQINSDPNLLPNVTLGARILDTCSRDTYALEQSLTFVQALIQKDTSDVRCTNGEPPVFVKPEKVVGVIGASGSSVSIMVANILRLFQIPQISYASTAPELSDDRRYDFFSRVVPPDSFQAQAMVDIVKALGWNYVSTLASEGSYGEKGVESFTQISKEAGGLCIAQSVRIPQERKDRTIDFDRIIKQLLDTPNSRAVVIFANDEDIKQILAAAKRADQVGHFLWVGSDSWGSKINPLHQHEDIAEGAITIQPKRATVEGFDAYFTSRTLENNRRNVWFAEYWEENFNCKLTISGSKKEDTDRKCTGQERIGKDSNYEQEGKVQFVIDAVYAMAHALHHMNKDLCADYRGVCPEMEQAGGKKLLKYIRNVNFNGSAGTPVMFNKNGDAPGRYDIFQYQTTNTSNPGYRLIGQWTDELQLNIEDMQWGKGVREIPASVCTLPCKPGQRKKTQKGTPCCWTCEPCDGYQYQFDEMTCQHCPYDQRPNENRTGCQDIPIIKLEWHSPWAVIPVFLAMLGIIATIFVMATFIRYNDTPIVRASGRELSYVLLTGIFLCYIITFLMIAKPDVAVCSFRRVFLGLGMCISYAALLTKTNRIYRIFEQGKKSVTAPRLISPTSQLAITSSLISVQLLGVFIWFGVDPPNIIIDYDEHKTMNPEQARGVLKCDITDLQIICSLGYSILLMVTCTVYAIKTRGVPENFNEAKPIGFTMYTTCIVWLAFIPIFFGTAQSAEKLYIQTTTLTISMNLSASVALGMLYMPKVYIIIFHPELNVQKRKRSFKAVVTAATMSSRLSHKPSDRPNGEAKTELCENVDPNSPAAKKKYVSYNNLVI
procedure_text: mGluR7 assay: CRE-directed luciferase reporter gene assay, reduction of forskolin stimulated cAMP production
reported_conditions: stable CHO cell line expressing the CRE-luc reporter and human mGluR7 genes; decrease of forskolin stimulated luminescence; 10-point concentration-response, duplicate wells
pEC50: −log10 of the molar value. Counter-ions that a name gives are not always drawn.
endpoint: pEC50

Worked set:
[[record]]
compound = "CC(C)(C)OC(=O)N[C@H]1c2ccccc2C[C@@H]1NC(=O)C(c1ccc(F)cc1F)n1cccn1 (mixture of isomers) [Example 81]"
endpoint = "pEC50"
value_observed = 7.08

[[record]]
compound = "CCOC1c2ccccc2CC1NC(=O)C(C)c1ccc(F)cc1F (single isomer, unassigned) [Example 29]"
endpoint = "pEC50"
value_observed = 8.00

[[record]]
compound = "C[C@H](C(=O)N[C@H]1Cc2ccccc2[C@@H]1N(C)C)c1ccc(F)cc1 [Example 74]"
endpoint = "pEC50"
value_observed = 7.03

[[record]]
compound = "N[C@H]1c2ccccc2C[C@@H]1NC(=O)C(c1ccc(F)cc1)N1CC(F)C1 (single isomer, unassigned) [Example 115]"
endpoint = "pEC50"
value_observed = 6.74


A: CCC(C(=O)N[C@H]1Cc2ccccc2[C@@H]1N)c1ccc(F)cc1F (stereo partly drawn) [Example 14, hydrochloride]
B: CN[C@H]1c2ccccc2C[C@@H]1NC(=O)[C@H](C)c1ccc(F)cc1 [Example 157]
Q: Param metric = pEC50; output whichever of A , B has the minimum value. Could you answer with the label of the item you picked?
Result: B
(B: 5.86, A: 6.86)

----------
assay_system: human mGluR7 (Homo sapiens)
procedure_text: mGluR7 assay: CRE-directed luciferase reporter gene assay, reduction of forskolin stimulated cAMP production
reported_conditions: stable CHO cell line expressing the CRE-luc reporter and human mGluR7 genes; decrease of forskolin stimulated luminescence; 10-point concentration-response, duplicate wells
pEC50: −log10 of the molar value.
endpoint: pEC50

Worked set:
[[record]]
compound = "COC1c2ccccc2C[C@@H]1NC(=O)[C@@H](NS(=O)(=O)c1c(C)noc1C)c1ccc(F)cc1 (stereo partly shown) [Example 83]"
endpoint = "pEC50"
value_observed = 7.59

[[record]]
compound = "CC(C)(C)OC(=O)N[C@H]1c2ccccc2C[C@@H]1NC(=O)C(c1ccc(F)cc1F)n1ccccc1=O (single isomer, unassigned) [Example 48]"
endpoint = "pEC50"
value_observed = 6.47

[[record]]
compound = "C[C@H](C(=O)N[C@H]1Cc2ccccc2[C@@H]1N)c1ccc(F)cc1 [Example 24]"
endpoint = "pEC50"
value_observed = 7.18

[[record]]
compound = "C[C@H](C(=O)N[C@@H]1Cc2ccccc2[C@H]1N1CC(F)C1)c1ccc(F)cc1 [Example 112]"
endpoint = "pEC50"
value_observed = 7.96

[[record]]
compound = "CC[C@H](C(=O)N[C@H]1Cc2ccccc2[C@@H]1NC(=O)OC(C)(C)C)c1ccc(F)cc1 [Example 42]"
endpoint = "pEC50"
value_observed = 7.89


P: C[C@H](C(=O)N[C@H]1Cc2ccccc2[C@@H]1NC(=O)OC(C)(C)C)c1ccc(F)cc1 [Example 21]
Q: CC[C@H](C(=O)NC1Cc2ccccc2C1OC)c1ccc(F)cc1 (mixture of isomers) [Example 44]
Q: Param metric = pEC50; output whichever of P , Q has the minimum value. Could you answer with the label of the item you picked?
Result: P
(P: 7.55, Q: 8.05)

The measured values listed here are drawn from patent US20190031599A1.
